# TGT: SIX1-Q177R homeodomain (human, UniProt Q15475 108-198, Q177R)
# Sequence: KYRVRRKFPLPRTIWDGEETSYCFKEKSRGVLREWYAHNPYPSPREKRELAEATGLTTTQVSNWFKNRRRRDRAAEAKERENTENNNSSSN
# ASSAY TEXT: universal protein binding microarray; Universal all-10-mer PBM (8x60K, AMADID 030236), 300 nM GST-tagged protein, Alexa Fluor 488 anti-GST; buffer, salt, pH and temperature not stated (as in Berger); high values mean tight binding
# APPLIED CONDITIONS: protein: ivt; tags: N-terminal GST; dsDNA, one strand shown
Over roughly 33,000 sequences, “e-score” has its median near -0.05; the highest 2% begin near 0.38. The sample holds the highest values, similar sequences and a random draw of the others, so the mix is not that of the screen.
ATTRIBUTE MEASURED: binding signal (E-score)
Give bare numbers, in E-score.

Guide cases for binding signal, answers given:
>  <CHAIN SEQUENCE>
ACCGCTAG

>  <RESULT UNIT>
E-score

>  <binding signal>
0.171

$$$$
>  <CHAIN SEQUENCE>
CCGGTGTA

>  <RESULT UNIT>
E-score

>  <binding signal>
0.486

$$$$
>  <CHAIN SEQUENCE>
CCTCTTTA

>  <RESULT UNIT>
E-score

>  <binding signal>
0.171

$$$$

Continue with the next sequence.
Send back SIX1-Q177R homeodomain (human, UniProt Q15475 108-198, Q177R) binding signal of GATGTGTA only. 0.19
